- assayComment: protease stability score; higher = more stable; yeast display proteolysis, trypsin and chymotrypsin
Returns one of criterion met or criterion not met; criterion met when protease stability score is >= 0.5.

Answered examples (4):
Given the entry SEEDKMVEDWLREWIELHLTGDFEQWESLFDPNTRSRAHVGDKRFESHGREQVVEVRHEIKREMRITDIDDKHIRVFNGRADLIGFMRGDINGRHVRLEIHVILVIVNGKRKEEEVRIH , answer whether its protease stability score meets or surpasses 0.5.
criterion not met

Given the entry DDEEKMFVHLAKLFTDIMTTGDEKFLDELVDPNVRFDVNGRLRVGREELKKAIQDWWREIRVDEILIHEIDVIDGRLRMDGRMRGDIDGQETYLELHIILHVIDGRMTHVEIRHQ , answer whether its protease stability score meets or surpasses 0.5.
criterion met

Given the entry DEEKRHHDEWRQFFLDSIKTGNWFELLKMIDPNTKILINGKEFHGRDAMHHFLTELRRRVDHLERFDIHHIDIQGNKAFDDTRLEGRINGVETHIDLLLISTKVNGVWYLKSVELR , answer whether its protease stability score meets or surpasses 0.5.
criterion met

Given the entry SEEEEEAHKFIEDWRTALETGDFDSIKELIDPNVRLHIGDKDLVGREEWVRELRRRKERYKGLRLKVHIKHVDIFDGRLIVDAEIRIDIGDKHLHYRVHIFVHKVNGRWQMKRYEEE , answer whether its protease stability score meets or surpasses 0.5.
criterion met

Others:
Given the entry DEEKKVAQTFLELLYRAIHTGDEDEIRRMMDPNYRMEINGKEFHGREDIVHRLVRIEKHLGFKHFHIKDMRTVGDKIDLHTEVIIGDFRWDVHIHIEKVNGRWLQTERRIE , answer whether its protease stability score meets or surpasses 0.5.
criterion met

----------
Could you please report measured protease stability score for the items listed next?
- assayComment: protease stability score; higher = more stable; yeast display proteolysis, trypsin and chymotrypsin;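 also: relative to predicted unfolded state with 0 unfolded-like and 1 meaning tenfold more protease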
Give bare numbers.

// worked examples, protease stability score included
Sample DEREDEVRLATEHVERILQTGDEELFRHFVDPRVRMDYNGKDVHGREVILEWIVKIKNLTVRIDDVEVQGDKMLIRSHWTIGDKQHHLRIIATKINGRWESTSVHIH ; protease stability score observed: 1.02

Sample SEEDELTRELVELWLHVFHTGDEEIMYKLADPNARVDVLIDGKRLDLVGREEIRRFLHEWHREAGFKHFDLHDIHFQGEKVHIDGREVYGDKFFRVIIHIHIVNGRIKSTKIEIR ; protease stability score observed: 1.67

Sample SEEEREIREIMKRFVQSFYTGDEHSLKKLLDPNVRHEFNGKEEHGWHRVWEDLAFFLRHIRIKHVVLRDVRVQGDKVHAHVEIHEEWDGRERDVEVHMRLEIVDGVVKSVKIEIQ ; protease stability score observed: 1.43

Sample TEESQIALEVLIKTARNKYTGDEDSVRHMADPNVQLHFDGQEIHGMDIIRKMIKHIRIDIEDSRSRDHHVQGDKIHDQTEVVLLIEYNGVHIRRQVRVHIHIWKINGRWILHSEIFE ; protease stability score observed: 1.41

Your task in this section: give protease stability score for each listed record.
1. DEEEKWIRHILELVLRAEKTGDEDRLSELMDPDVKLDIDGRDLHGREKVKEWIEELKHKFKNLRIIDRDIRIYGEKHNVHGELHFNGQTHSAIIILRIVDGRIKEIFVIHV
2. HEEEELARKLVEILLNLLLTGDEDVIRHLLDPNARIHIDGQDNVGREEVIRVWRHWLEKFGIDHIEINRIHYQGEWLHIIGLVKVNGRERPLHIHLNVINGRLKHSEFRIR
3. SEDERLAREVIEILHNIMHTGDEHLLDEMLDPNAKVHFDGKDFHGMDVWIKFLIEIRVDSIHVRRVHSINGVLHVDSELDGTINGKKDIRRTRIIMEKVDGRWRVTEVRYV

1: 1.32; 2: 1.48; 3: 1.41

Your task in this section: give protease stability score for each listed record.
1. DHEEELAKSMLEIWREVVWTGDEDSLQKLLDPDARYHLVVDGKRVERIGMEHIRKELHRLFREWRIEDMHIHEIRVVDGVAHTRTRLVVNIDGRIVDTETVINVVSFDGRVRSVTVDIR
2. SEDEKDARIAVKLLWEIFQTGDEDLFTKFIDPNTRSEINGREIHGREDVYRLMEELGIKVIRVHDVKTQGDKVHLTMEVTVNGRRHRVHFIFEKIDGRWIARHEKVE
3. DENEHQTRIWNEIFIKIFLTGDWKRLSDMADPHVRSIINGQDLHGMENLSKIVEEIREELRVRSVHLHDIKVINGVAKVDTRLDMEYGDKRTDYNIEIHTLKVDGRWHLKEIKLV
4. TEEEEYLRKLTKDFIEAFLTGNWKEVARLLDPHTRLHVGEFEIHGREEMMKFMIELITRAGIKHQHIKSFETRIINGVVFLHVHMIVIVNGRNIERRLHVLFVKIDGRWTIEEVSEEHE

[1.25, 1.45, 0.292, 1.46]

----------
- assayComment: protease stability score; higher = more stable; yeast display proteolysis, trypsin and chymotrypsin;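 also: relative to predicted unfolded state with 0 unfolded-like and 1 meaning tenfold more protease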
recordedEndpoint: protease stability score

Sample SEEEKRNHEIAKKFIEAFETGDEDFVNHMADPHVKIIVDGVELHGRDQLHHVRKWLEERYPNVRWHLDDMRVQGNKVFLETTLHVGDKTRKSEIILIVINGRLKEIEMRIR ; protease stability score observed: 1.92

Sample THEDEIFKEFERILREVDETGDEHDIKQYLDPNTKFHINGRDLIGMKVVTEFWRELLQKYKNLTINRRIRHVEVYNGRVHIHGHLSLHYGDKDIRVDVHIQAIKIDGRWHLQQEHYL ; protease stability score observed: 1.15

Now let's try a different one.
Sample DERKEMTRHFTEEWIRLWETGDFEHMHDLFDPHARIIIDGQDHHGMEHVNERWRRIKNIRLEIKDFKVYGDKIFIDLKVTVNGREEKVEIIVVVVDGKFKMIEFRFV ; protease stability score observed: 2.11

----------
- assayComment: protease stability score; higher = more stable; yeast display proteolysis, trypsin and chymotrypsin;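 also: relative to predicted unfolded state with 0 unfolded-like and 1 meaning tenfold more protease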
recordedEndpoint: protease stability score
Give bare numbers.

// worked examples, protease stability score included
Sample SNEQKEFELLLRLMKEIIETGDEENFHRMVDPHARLQVGDKHHHGREEMSRWFEEFTKRFKNAKVHIDHVDSVDGQLHIDTTLIFDGVERRVEIIVRKVDGKWILEEVRII ; protease stability score observed: 1.08

Sample SEEERLTRELVEILLELFKTGDEDKWKEMVDPNVRVELIQGEKFIIDHGWESFFRFLLELGVDHREDKRKDAVNGRVHLTGQIDINGRRIDIHLDIDVVNGKVKSIRVELR ; protease stability score observed: 0.933

Sample DQKKELIKKVHEHLFEDLITGDEKKLLSLADPNMRSDINGREIHGMEETSRILLELNRHWGVDRVEVHEHDMKIQGDKAIIHGTLKFNGVETTVELVILKINGVWLLKEVHFR ; protease stability score observed: 0.76

Sample DEDHRWLKELMELFSRALSTGNEKELTELMDPNTRIEVDGVDLIGREDWRHFLERVDHLEAKRVEIKRVKVYDGKIEMDTTEDGVIEINGQNVRTIVHSQVFVLKVDGRWIFRKMSRR ; protease stability score observed: 1.42

Sample TERREVVEQLLRHFFQSTITGDWRDLEHYIDPNARNIVNGKITHGREAITEYYMRFDYFHVDDIIIRERDVIDGQAHLRVEIHGQIEINGRKNRFETHVEIIILKVDGRWVWRSFDIR ; protease stability score observed: 1.33

Your task in this section: give protease stability score for each listed record.
1. SEEETRLEKYLRILLEMWKTGNEEWMFKYADPDARLQVGDKEFHGREHIMKFLKDWLDKAGVKHEEDRREEYIGDKLRVDSERNVNGVENRVILIFVVINGRYREFIIIIR
2. TEMEEEIRDSIELLDRAINTGDEEKLRRLFDPNTRREVGDKQHHGRELLIRQIVELGAEHHIHVDHWRLQGDKAVIDGTLNYEFNGREYRTRTTLHLVKINGRWLMHSIHLH
3. DEDEEVSRRALEKWIKNFLTGNEDSVLELADPHMRIVQGDKEYHGRHEMRDMMTDWLREIRIKTVEERHFRVIDGRVDHHVTLHGIVNGKETVRRMIVISEKVDGKWILHSLEIR
4. SEEEEYFRFVAEEFLKAWSTGNEEILERLFDPRVRLSFNGKQFHGRERVHDKLMQLLEHLGINHTRIDDREFRIIGDKAEIRIDLILHVGDKTLRVEVILIITKVNGVWMMKEVELRIH

1.47
1.08
0.907
1.51

----------
- assayComment: protease stability score; higher = more stable; yeast display proteolysis, trypsin and chymotrypsin;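 also: relative to predicted unfolded state with 0 unfolded-like and 1 meaning tenfold more protease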
Returns one of condition met or condition not met; condition met when protease stability score is >= 1.

Given the entry SEEYKRVKHMFDLWLHALITGDEDLMEELADPHVRHDINGVKNHGWETLIDREREWRIKRIDHRRSDAVNGRMHSDVHIDGIFDGKRHETDVTIHMIVVNGKFKTVEIRYH , answer whether its protease stability score meets or surpasses 1.
condition met

Given the entry NERKKFIEELARLYFKWWLTGDFENLLRNADPNTRIDVNGREIIGREKFVEELREHVDKFKNIREDLHDMDLQGDKVILHIRMNVDGKTIEVRVEIFVINGQIRSESWRFE , answer whether its protease stability score meets or surpasses 1.
condition met

Given the entry DHHEEASHRVIEILLRAHRTGDWHELLRMMDPNTMLIVGDKTFHGREELEKILRHFVERAITIHDIKIESVENQGDKIHVHGHIDKRVNGRQVSIETEIDILKVNGRWFISTLRYH , answer whether its protease stability score meets or surpasses 1.
condition met

Given the entry SEERHELERTLKRYQDALITGNEEQMEKLIDPNVRTRIDGVDLIGMELVIEELVEWLDRYPNVRIHSHIHEVRFQGDKADIDSRLHLIFDGQEYRLHTRIHIWKFNGRWVLTHSEID , answer whether its protease stability score meets or surpasses 1.
condition not met

Given the entry SELEEWLFHFVKRFIRAELTGDEEEMLHLLDPNARMIIGDKHIHGRENIMELVRHFWHEIRIDHIEIKHVDFQGDKVIIHGQSDGQINGQRTTVDVRIQLIIINGRLKLLEFDNR , answer whether its protease stability score meets or surpasses 1.
condition met

Moving on to another sequence below.
Given the entry DKDEDDERKAIDTLVDVLRTGDEHTLQRLLDPNVQLHIGDKRHHGRDEVIRVLHELHRRLGVTRVEVEIQEYHMVDGQIDLRVHLKYGDKTIESEFVLYKVNGRWFVKSLHFK , answer whether its protease stability score meets or surpasses 1.
condition met
